Target: Muscarinic acetylcholine receptor M1 (Homo sapiens)
Sequence (P11229 whole entry): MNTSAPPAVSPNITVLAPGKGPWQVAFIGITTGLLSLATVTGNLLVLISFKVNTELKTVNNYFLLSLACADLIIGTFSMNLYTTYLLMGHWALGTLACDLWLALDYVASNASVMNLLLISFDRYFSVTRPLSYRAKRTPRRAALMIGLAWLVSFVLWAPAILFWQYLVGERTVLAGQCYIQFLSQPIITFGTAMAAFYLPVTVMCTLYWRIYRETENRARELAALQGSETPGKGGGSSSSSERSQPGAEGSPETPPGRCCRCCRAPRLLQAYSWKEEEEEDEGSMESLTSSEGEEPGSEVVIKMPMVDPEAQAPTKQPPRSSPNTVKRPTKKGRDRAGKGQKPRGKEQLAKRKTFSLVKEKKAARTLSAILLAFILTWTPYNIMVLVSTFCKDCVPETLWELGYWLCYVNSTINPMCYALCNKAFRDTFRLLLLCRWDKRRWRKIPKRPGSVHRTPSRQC
Test: Evaluated for its binding affinity at human muscarinic receptor m1 by displacement of [3H]NMS binding using membranes in transfected chinese hamster ovarian cell
# reported pIC50; entries follow
Would you please state pIC50, meaning minus log10 of the concentration in mol/L, as a bare number?

>  <Molecule>
CCOC(=O)c1c[nH]c2ccc3c(c12)CN1CCc2cc(OC)c(OC)cc2C1O3 (stereo unspecified)

>  <pIC50>
5.09

$$$$

Incoming: What value of pIC50 has been reported for the following molecule? COc1ccc2c(c1)CCN1Cc3c(ccc4[nH]c(C)c(C(=O)OC(C)C)c34)OC21 (stereo unspecified)
Outgoing: 5.39

Incoming: What value of pIC50 has been reported for the following molecule? CCOC(=O)c1c(C)[nH]c2ccc3c(c12)CN1CCc2cc(Oc4ccccc4)ccc2C1O3 (stereo unspecified)
Outgoing: 5.71

Incoming: What value of pIC50 has been reported for the following molecule? CCOC(=O)c1c(C)[nH]c2ccc3c(c12)CN1CCc2cc(C)ccc2C1O3 (stereo unspecified)
Outgoing: 5.48

Incoming: What value of pIC50 has been reported for the following molecule? CCOC(=O)c1c(C)[nH]c2ccc3c(c12)CN1CCc2cc(OC)ccc2C1O3 (stereo unspecified)
Outgoing: 5.18

Incoming: What value of pIC50 has been reported for the following molecule? CCOC(=O)c1c(C)[nH]c2ccc3c(c12)CN1CCc2cc(OC)c(OC)cc2C1O3 (stereo unspecified)
Outgoing: 4.89
